Reported Fold EC50 shift of IL-2-induced proliferation, NK92 (huRαβγ) values follow for various binders
# TARGET_SYSTEM: Recombinant human IL-2 (human, UniProt P60568 21-153)
# EXPERIMENT_DESCRIPTION: cell-based or functional assay
MEASUREMENT_LABEL: Fold EC50 shift of IL-2-induced proliferation, NK92 (huRαβγ) (fold)

>  <BINDER>
XPA.92.099 (antibody, V domains shown, Tested as purified full-length human IgG; also called mAb99; clone 99) VH: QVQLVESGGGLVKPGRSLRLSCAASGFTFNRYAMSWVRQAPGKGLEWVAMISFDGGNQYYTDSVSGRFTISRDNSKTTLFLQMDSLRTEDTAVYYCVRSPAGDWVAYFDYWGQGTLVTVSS VL: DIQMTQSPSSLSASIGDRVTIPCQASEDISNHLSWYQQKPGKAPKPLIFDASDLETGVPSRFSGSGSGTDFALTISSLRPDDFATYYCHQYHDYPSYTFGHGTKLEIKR

>  <OBSERVED_MEASUREMENT>
22

$$$$
>  <BINDER>
XPA.92.019 (antibody, V domains shown, Tested as purified full-length human IgG; also called mAb19) VH: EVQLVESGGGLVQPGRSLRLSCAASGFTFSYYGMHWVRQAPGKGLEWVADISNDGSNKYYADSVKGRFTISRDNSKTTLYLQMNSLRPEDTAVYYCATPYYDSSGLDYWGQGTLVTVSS VL: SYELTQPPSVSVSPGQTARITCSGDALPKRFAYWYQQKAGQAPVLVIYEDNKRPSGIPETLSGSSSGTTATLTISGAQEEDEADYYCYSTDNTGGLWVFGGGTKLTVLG

>  <OBSERVED_MEASUREMENT>
33

$$$$
>  <BINDER>
XPA.92.041 (antibody, V domains shown, Tested as purified full-length human IgG) VH: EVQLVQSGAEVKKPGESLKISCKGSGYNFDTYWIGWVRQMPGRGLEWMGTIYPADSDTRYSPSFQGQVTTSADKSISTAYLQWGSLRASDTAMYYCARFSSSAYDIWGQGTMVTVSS VL: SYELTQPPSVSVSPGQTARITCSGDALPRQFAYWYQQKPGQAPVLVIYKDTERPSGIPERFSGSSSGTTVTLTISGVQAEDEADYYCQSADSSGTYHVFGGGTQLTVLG

>  <OBSERVED_MEASUREMENT>
35

$$$$
